Hey, just so you know, these numbers are from patent US20200157092A1.

# Assayed Target: OGA (Homo sapiens, UniProt O60502)
# Construct: HEK293 cells inducible for P301L mutant human Tau (isoform 2N4R) were established at Janssen; endogenous in cells; host or cells: HEK293 cells inducible for P301L mutant human Tau (2N4R)
# Assay Procedure: OGA cellular assay: immunocytochemical detection of O-GlcNAcylated proteins in HEK293 cells inducible for P301L mutant human Tau
# Assay type: cell-based
# Details: HEK293, read-out: Cellular Emax (%)
Provide the recorded Emax for the entries that follow.
One number for each entry, in %.

Known Emax results, listed for orientation:
> print(dat)
                                   compound                      assayed.target  unit.info  observed.result
1  CC(=O)Nc1ncc(CN2CCCC(Cc3c(F)c(C)nc4ncnn34)C2)s1 (stereo not drawn) [Product 47]  OGA (Homo sapiens, UniProt O60502)          %              109
2  Cc1cc(C2CCCN(C(C)c3ccc4c(c3)OCO4)C2)n2ccnc2n1 (stereo not drawn) [Product 52]  OGA (Homo sapiens, UniProt O60502)          %              131

Problem: State, in one line, measured Emax of CC(=O)Nc1ncc(CN2CC[C@H](Cc3cncc4nccn34)C2)s1 [Product 108]
Solution: 92.7
